Tested on: THP-1 cells
Assay: TNFα generation assay
Format: cell-based, human
Conditions: Homo sapiens, THP-1, THP-1 cells; Table 22; read-out: IC50 in TNFα generation assay
pIC50: −log10 of the molar value.
Exercise: state measured pIC50 for each of the compounds provided.

As a guide, the following entries are already answered.
Cc1cc(Nc2nc(NC3CCCCC3N)c(F)cc2C(N)=O)cnc1C (stereo not drawn): 6.70 to 6.89
CC(C)C[C@@H](Nc1nc(Nc2ccc3c(c2)c(C2CC2)nn3C)c(C(N)=O)cc1F)[C@H](C)N: 6.70 to 6.89

For every item below, please supply its pIC50.
1. Cc1cc2cc(Nc3nc(N[C@@H]4CCCC[C@@H]4N)c(F)cc3C(N)=O)ccc2[nH]1 (relative stereo)
2. NC(=O)c1cc(F)c(NC2CCCCC2N)nc1Nc1ccc(-n2cccn2)nc1 (stereo not drawn)
3. CCC[C@@H](Nc1nc(Nc2ccc3c(cnn3CCOC)c2)c(C(N)=O)cc1F)[C@H](C)N
4. CC(C)c1nn(C)c2ccc(Nc3nc(N[C@@H]4CCCC[C@@H]4N)c(F)cc3C(N)=O)cc12
5. CCc1nn(CC)c2ccc(Nc3nc(N[C@@H]4CCCC[C@@H]4N)c(F)cc3C(N)=O)cc12

Reply text:
1: 6.70 to 6.89; 2: 6.70 to 6.89; 3: > 7.19; 4: 6.89 to 7.19; 5: > 7.19

For every item below, please supply its pIC50.
1. Cc1cc(Nc2nc(N[C@@H](CN)CC(C)C)c(F)cc2C(N)=O)cnc1C
2. C[C@H](N)[C@H](Nc1nc(Nc2ccc3cnn(C)c3c2)c(C(N)=O)cc1F)C1CC1
3. Cc1nc2ccc(Nc3nc(NC4CCCCC4N)c(F)cc3C(N)=O)cc2nc1C (stereo not drawn)
4. CCC[C@@H](Nc1nc(Nc2ccnc(-n3ccnn3)c2)c(C(N)=O)cc1F)[C@H](C)N
5. CCn1ncc2ccc(Nc3nc(N[C@H](C4CC4)[C@H](C)N)c(F)cc3C(N)=O)cc21
6. NC[C@H](Nc1nc(Nc2cccc(-n3nccn3)c2)c(C(N)=O)cc1F)c1ccccc1
7. NC(=O)c1cc(F)c(N[C@@H]2CCCC[C@@H]2N)nc1Nc1cncc(-c2ccno2)c1 (relative stereo)

Reply text:
1: 6.70 to 6.89; 2: > 7.19; 3: 6.70 to 6.89; 4: > 7.19; 5: > 7.19; 6: 6.70 to 6.89; 7: 6.89 to 7.19

###

Test system: THP-1 cells
Assay: TNFα generation assay
Format: cell-based, human
Conditions: Homo sapiens, THP-1, THP-1 cells; Table 22; read-out: IC50 in TNFα generation assay
pIC50: −log10 of the molar value.
Exercise: state measured pIC50 for each of the compounds provided.

As a guide, the following entries are already answered.
CCCOc1cc(Nc2nc(N[C@H](C)[C@H](C)N)c(F)cc2C(N)=O)ccn1 (racemic) [Example 006-187]: 6.70 to 6.89
CC[C@@H](Nc1nc(Nc2ccc3nccnc3c2)c(C(N)=O)cc1F)[C@H](C)N [Example 006-260]: > 7.19
NC(=O)c1cc(F)c(N[C@@H]2CCCC[C@@H]2N)nc1Nc1cncc(-c2ccoc2)c1 (relative stereo) [Example 004-078]: 6.89 to 7.19
COc1cc(Nc2nc(NC[C@H](C)N)c(F)cc2C(N)=O)cc(OC)n1 [Example 006-098]: > 7.19

For every item below, please supply its pIC50.
1. CCC[C@@H](Nc1nc(Nc2ccnc(-c3cccc(OC)c3F)c2)c(C(N)=O)cc1F)[C@H](C)N [Example 006-289]
2. CCC[C@@H](Nc1nc(Nc2ccc3c(cnn3CC)c2)c(C(N)=O)cc1F)[C@H](C)N [Example 006-237]
3. CCn1nc(C2CC2)c2cc(Nc3nc(N[C@@H]4CCCC[C@@H]4N)c(F)cc3C(N)=O)ccc21 [Example 006-548]
4. Cn1c(F)cc2cc(Nc3nc(N[C@@H]4CCCC[C@@H]4N)c(F)cc3C(N)=O)ccc21 (relative stereo) [Example 004-117]

Reply text:
1. > 7.19
2. > 7.19
3. 6.89 to 7.19
4. 6.70 to 6.89

For every item below, please supply its pIC50.
1. Cn1ncc2cc(Nc3nc(N[C@@H]4CCCC[C@@H]4N)c(F)cc3C(N)=O)ccc21 [Example 37-5]
2. CC[C@@H](Nc1nc(Nc2ccc3cnn(C)c3c2)c(C(N)=O)cc1F)[C@H](C)N [Example 006-358]

Reply text:
["6.89 to 7.19", "> 7.19"]

All figures here come from patent US8895585B2.
